Provide the reported % binding (parent = 100) of each item.
Molecular target: T1, human C5 (human, UniProt P01031 19-673; P01031 678-1676, Beta and alpha chains are disulfide-linked and the protein is glycosylated.)
T1 construct: Either in-house recombinant C5 or plasma derived C5 (CALBIOCHEM) was used; also called recombinant human C5; plasma derived human C5
Assay: Biacore, captured antibody, pH 7.4, 37 C;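 note: biacore binding response of anti-C5 antibody light chain variants captured on chip with human C5 injected, ACES running buffer containing 1.2 mM CaCl₂, parent light chain antibody set to 100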
Hi! Could you send only the number? It should be in %, unit omitted.

(Q) May I ask what % binding (parent = 100) has been recorded for CFP0017 17L 31H (antibody, V domains shown) VH: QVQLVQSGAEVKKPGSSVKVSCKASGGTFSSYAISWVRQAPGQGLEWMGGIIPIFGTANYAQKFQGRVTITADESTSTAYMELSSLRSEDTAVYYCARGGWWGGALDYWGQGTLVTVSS VL: DIQMTQSPSSLSASVGDRVTITCRASQSIEHDLAWYQQKPGKAPKLLIYHASSLQSGVPSRFSGSGSGTDFTLTISSLQPEDFATYYCQQSDSYPLTFGQGTKVEIK ?
(A) 3.4

(Q) Same for CFP0015 15L 92E (antibody, V domains shown) VH: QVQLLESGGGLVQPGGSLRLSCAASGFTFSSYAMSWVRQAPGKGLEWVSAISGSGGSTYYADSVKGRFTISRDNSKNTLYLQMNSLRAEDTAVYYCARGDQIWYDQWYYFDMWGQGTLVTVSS VL: DIQMTQSPSSLSASVGDRVTITCRASQSIEDDLAWYQQKPGKAPKLLIYEASNLQSGVPSRFSGSGSGTDFTLTISSLQPEDFATYYCQQYESSPLTFGQGTKVEIK
(A) 99.8

(Q) Same for CFP0021 21L 96H (antibody, V domains shown) VH: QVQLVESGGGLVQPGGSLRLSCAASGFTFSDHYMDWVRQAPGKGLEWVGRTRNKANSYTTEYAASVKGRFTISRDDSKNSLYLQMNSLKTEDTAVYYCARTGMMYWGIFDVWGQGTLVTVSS VL: DIQMTQSPSSLSASVGDRVTITCRASQSIEDDLAWYQQKPGKAPKLLIYHASTLQSGVPSRFSGSGSGTDFTLTISSLQPEDFATYYCQQHDSYPHTFGQGTKVEIK
(A) -0.7
